The values you see were collected from patent US7314858B2.

assay: MTT cytotoxicity assay; type: cell-based, human; conditions: human, H9 cells
Where a SMILES comes first, the peptide text is derived from it. Bridges are numbered along the chain shown (N, C = ends).
experimental_endpoint: EC50

Which value of EC50 has been reported for CC[C@H](C)[C@@H]1NC(=O)CNC(=O)[C@H](CCCNC(=N)N)NC(=O)CNC(=O)[C@@H]2CSSC[C@H](NC1=O)C(=O)N[C@@H](CCCNC(=N)N)C(=O)N[C@H]1CSSC[C@H](NC(=O)[C@H](CCCNC(=N)N)NC(=O)[C@@H]3CSSC[C@H](NC(=O)[C@H]([C@@H](C)CC)NC1=O)C(=O)NCC(=O)N[C@@H](CCCNC(=N)N)C(=O)NCC(=O)N[C@@H]([C@@H](C)CC)C(=O)N3)C(=O)N[C@@H]([C@@H](C)CC)C(=O)N2 [RC-100, Retrocyclin] (cyclo(GICRCICGRGICRCICGR); disulfide 3-16, 5-14, 7-12) in the records?
> 100 µg/mL
